Molecular target: TRPML3 (Homo sapiens, UniProt Q8TDD5)
Construct: expressed in transfected cells
Experiment: Fluorescent TRPML3 assay (performed as for TRPML1, substituting the TRPML3 subtype)
Type: cell-based
Protocol: HEK-293 Trex cells were stably transfected with a construct consisting of the human coding sequence for TRPML1 cloned into the […] plasmid pCDNA5 T/O. Mutations were introduced into the TRPML1 sequence to facilitate expression on the cell surface (Silvia Vergarajauregui, Rosa Puertollano, Traffic. 2006 March; 7(3): 337-353). […] The Trypsin-EDTA is diluted with growth media, and cells are counted. […] EC50 values were calculated using a non-linear regression of Prism. […]
Measured Parameter: EC50

Smi: [2H]C([2H])([2H])C(OC(=O)N1C[C@H](C)N(c2ncnc3c2c(C(F)(F)F)cn3-c2cc(C#N)ccn2)C[C@@H]1C)(C([2H])([2H])[2H])C([2H])([2H])[2H]
Target Entity: TRPML3 (Homo sapiens, UniProt Q8TDD5)
EC50: < 100 nM

Ask: Query: EC50; subject: Cc1cn(-c2cc(C(F)(F)F)ccn2)c2ncnc(N3CCN(C(=O)OC(C)(C)C)[C@H](C)C3)c12
Result: < 100 nM

Ask: Query: EC50; subject: C[C@@H]1CN(c2ncnc3c2c(-c2ccccc2F)cn3-c2cc(F)ccn2)[C@@H](C)CN1C(=O)OC1(C)CC1
Result: < 100 nM

* * *

Target: TRPML3 (Homo sapiens)
Construct: expressed in transfected cells
Sequence (Q8TDD5 1-553): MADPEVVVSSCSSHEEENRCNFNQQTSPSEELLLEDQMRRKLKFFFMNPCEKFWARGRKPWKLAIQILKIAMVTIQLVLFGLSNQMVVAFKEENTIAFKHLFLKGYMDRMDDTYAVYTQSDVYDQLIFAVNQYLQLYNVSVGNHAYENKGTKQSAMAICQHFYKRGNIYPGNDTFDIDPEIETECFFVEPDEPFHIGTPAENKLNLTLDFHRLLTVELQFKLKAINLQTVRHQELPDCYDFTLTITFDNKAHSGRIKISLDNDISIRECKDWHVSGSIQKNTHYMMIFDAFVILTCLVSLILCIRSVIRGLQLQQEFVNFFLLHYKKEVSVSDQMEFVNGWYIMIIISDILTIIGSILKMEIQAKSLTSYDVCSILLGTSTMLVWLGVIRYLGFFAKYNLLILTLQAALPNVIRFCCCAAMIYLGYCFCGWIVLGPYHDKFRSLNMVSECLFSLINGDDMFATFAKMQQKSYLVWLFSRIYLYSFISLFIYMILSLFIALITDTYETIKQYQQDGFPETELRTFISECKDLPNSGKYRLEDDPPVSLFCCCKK
Assay: Fluorescent TRPML3 assay (performed as for TRPML1, substituting the TRPML3 subtype)
Type: cell-based
Details: fluorescent calcium assay
Measured Parameter: EC50

// below: answered compounds
Compound: C[C@H]1CN(C(=O)OC(C)(C)C)CCN1c1ncnc2c1c(C1CC1)cn2C1CCCCC1
Measured Parameter: EC50
Readout Value: < 100 nM

Compound: C[C@@H]1CN(C(=O)OC(C)(C)C)CCN1c1ncnc2c1c(N1CCCC1)cn2-c1cccc(Cl)c1
Measured Parameter: EC50
Readout Value: < 100 nM

Compound: CC(C)(C)OC(=O)N1CCN(c2ncnc3c2c(C2CC2)cn3-c2ccc(Cl)c(F)c2)CC1
Measured Parameter: EC50
Readout Value: < 100 nM

Compound: CC(C)(C)OC(=O)N1CCN(c2nccc3c2c(-c2ccccc2F)cn3-c2cncnc2)CC1
Measured Parameter: EC50
Readout Value: > 2000 nM

Compound: C[C@H]1CN(C(=O)OC(C)(C)C)CCN1c1ncnc2c1c(C1CC1)cn2-c1cc(C#N)ncn1
Measured Parameter: EC50
Readout Value: < 100 nM

Compound: CC(C)(C)OC(=O)N1CCN(c2ncnc3c2c(C2CC2)cn3-c2cc(F)cc(F)c2)CC1
Measured Parameter: EC50
Readout Value: < 100 nM

Compound: C[C@H]1CN(C(=O)OC(C)(C)C)CCN1c1ncnc2c1c(-c1cnccn1)cn2-c1cccc(Cl)c1
Measured Parameter: EC50
Readout Value: < 100 nM

Compound: C[C@H]1CN(C(=O)OC(C)(C)C)CCN1c1ncnc2c1c(N1CCN(C)CC1)cn2-c1cc(C#N)ccn1
Measured Parameter: EC50
Readout Value: > 2000 nM

Compound: CC(C)(C)OC(=O)N1CCN(c2ncnc3c2c(-c2ccccn2)cn3-c2cccc(Cl)c2)CC1
Measured Parameter: EC50
Readout Value: < 100 nM

Compound: C[C@@H]1CN(C(=O)OC(C)(C)C)CCN1c1ncnc2c1c(C1CC1)cn2-c1cc(F)cc(F)c1
Measured Parameter: EC50
Readout Value: < 100 nM

Ask: Query: EC50; subject: COc1cc(OC(F)(F)F)cc(-n2cc(C3CC3)c3c(N4CCN(C(=O)OC(C)(C)C)C[C@@H]4C)ncnc32)c1
Result: 100 to 500 nM

Ask: Query: EC50; subject: CC(C)(C)OC(=O)N1CCN(c2ncnc3c2c(C2CC2)cn3-c2cc(F)cc(F)c2)C[C@H]1CF (single isomer, unassigned)
Result: < 100 nM

Ask: Query: EC50; subject: C[C@@H]1CN(C(=O)OC(C)(C)C)CCN1c1ncnc2c1c(C1CCCC1)cn2-c1cccc(Cl)c1
Result: < 100 nM

Ask: Query: EC50; subject: Cc1cncc(-n2cc(-c3cccnc3)c3c(N4C[C@@H](C)N(C(=O)OC(C)(C)C)C[C@@H]4C)ncnc32)c1
Result: 500 to 2000 nM

Ask: Query: EC50; subject: C[C@@H]1CN(C(=O)OC(C)(C)C)CCN1c1ncnc2c1c(N1CCOCC1)cn2-c1cc(F)cc(F)c1
Result: 100 to 500 nM

* * *

Biological target: TRPML3 (Homo sapiens)
Construct: expressed in transfected cells
Assay: Fluorescent TRPML3 assay (performed as for TRPML1, substituting the TRPML3 subtype)
Type: cell-based
Settings: fluorescent calcium assay
Examples of compounds with documented EC50 follow.

Compound: C[C@H]1CN(C(=O)OC(C)(C)C)CCN1c1ncnc2c1c(C1CC1)cn2-c1ccc(F)c(F)c1 [Compound 219]
Target Entity: TRPML3 (Homo sapiens)
Measured Parameter: EC50
Readout Value: < 100 nM

Proceeding to the next compound to report its EC50.
Ask: Query: EC50; subject: C[C@H]1CN(C(=O)OC(C)(C)C)CCN1c1ncnc2c1c(-c1ccncn1)cn2-c1cccc(Cl)c1 [Compound 115]
Result: 100 to 500 nM

* * *

Biological target: TRPML2 (Homo sapiens, UniProt Q8IZK6)
Construct: expressed in transfected cells
Sequence (Q8IZK6 whole entry): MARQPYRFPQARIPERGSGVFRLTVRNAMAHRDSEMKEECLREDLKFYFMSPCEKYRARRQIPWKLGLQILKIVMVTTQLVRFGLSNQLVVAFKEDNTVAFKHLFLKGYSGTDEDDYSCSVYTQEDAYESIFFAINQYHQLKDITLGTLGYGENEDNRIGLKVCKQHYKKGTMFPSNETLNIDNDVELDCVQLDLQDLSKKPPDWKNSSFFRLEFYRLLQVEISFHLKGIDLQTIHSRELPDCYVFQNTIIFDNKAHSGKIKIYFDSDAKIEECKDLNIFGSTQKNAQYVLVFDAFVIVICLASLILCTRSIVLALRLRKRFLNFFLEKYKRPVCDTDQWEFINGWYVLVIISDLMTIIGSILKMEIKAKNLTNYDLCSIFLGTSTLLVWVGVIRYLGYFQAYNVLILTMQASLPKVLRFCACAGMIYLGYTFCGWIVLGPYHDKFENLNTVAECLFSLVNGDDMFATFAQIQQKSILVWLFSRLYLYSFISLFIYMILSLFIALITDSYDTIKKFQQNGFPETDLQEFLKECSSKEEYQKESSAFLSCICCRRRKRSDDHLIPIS
Assay: Fluorescent TRPML2 assay (performed as for TRPML1, substituting the TRPML2 subtype)
Type: cell-based
pEC50: −log10 of the molar value.
Measured Parameter: pEC50

Smi: Cc1cn(-c2ccc(F)cc2)c2ncnc(N3CCN(C(=O)OC(C)(C)C)C[C@@H]3C)c12
pEC50: > 7.00

Smi: CCCN(C)c1cn(-c2cc(C#N)ccn2)c2ncnc(N3C[C@@H](C)N(C(=O)OC(C)(C)C)C[C@@H]3C)c12
pEC50: 6.30 to 7.00

Smi: [2H]C([2H])([2H])[C@@H]1CN(c2ncnc3c2c(-c2ccccc2F)cn3-c2cc(C#N)ccn2)[C@@H](C)CN1C(=O)OC(C)(C)C
pEC50: > 7.00

Smi: Cc1ccnc(-n2cc(C3CC3)c3c(N4C[C@@H](C)N(C(=O)OC(C)(C)C)C[C@@H]4C)ncnc32)c1
pEC50: 5.70 to 6.30

Smi: Cc1cn(-c2cccc(C#N)c2)c2ncnc(N3C[C@@H](C)N(C(=O)OC(C)(C)C)C[C@@H]3C)c12
pEC50: 5.70 to 6.30

Ask: Query: pEC50; subject: C[C@H]1CN(C(=O)OC(C)(C)C)CCN1c1ncnc2c1c(-c1ccccc1F)cn2-c1cc(C(F)(F)F)ccn1
Result: > 7.00

Ask: Query: pEC50; subject: CC(C)(C)OC(=O)N1CCN(c2ncnc3c2c(C(F)(F)F)cn3-c2cc(C#N)ccn2)C(C)(C)C1
Result: > 7.00

Ask: Query: pEC50; subject: C[C@H]1CN(C(=O)OC(C)(C)C)CCN1c1ncnc2c1c(C(F)(F)F)cn2-c1cccc(Cl)c1
Result: 6.30 to 7.00

Ask: Query: pEC50; subject: C[C@@H]1CN(c2ncnc3c2c(-c2ccccc2F)cn3-c2cc(F)ccn2)[C@@H](C)CN1C(=O)OC1(C)CC1
Result: > 7.00

Ask: Query: pEC50; subject: Cc1cn(-c2cc(F)ccn2)c2ncnc(N3CCN(C(=O)OC(C)(C)C)[C@H](C)C3)c12
Result: 6.30 to 7.00

Ask: Query: pEC50; subject: CCCOc1cn(-c2cc(C#N)ccn2)c2ncnc(N3C[C@@H](C)N(C(=O)OC(C)(C)C)C[C@@H]3C)c12
Result: > 7.00

Ask: Query: pEC50; subject: C[C@H]1CN(C(=O)OC(C)(C)C)CCN1c1ncnc2c1c(C(F)(F)F)cn2-c1cc(F)cc(F)c1
Result: 6.30 to 7.00

Ask: Query: pEC50; subject: C[C@H]1CN(C(=O)OC(C)(C)C)CCN1c1nccc2c1c(-c1ccccc1F)cn2-c1cccc(F)c1
Result: > 7.00

Ask: Query: pEC50; subject: Cc1cn(-c2cncc(F)c2)c2ncnc(N3C[C@@H](C)N(C(=O)OC(C)(C)C)C[C@@H]3C)c12
Result: 5.70 to 6.30

Ask: Query: pEC50; subject: C[C@@H]1CN(c2ncnc3c2c(C2CCC2)cn3-c2cccc(F)c2)[C@@H](C)CN1C(=O)OC(C)(C)C
Result: < 5.70

Ask: Query: pEC50; subject: C[C@@H]1CN(c2ncnc3c2c(C(F)F)cn3-c2cc(C#N)ccn2)[C@@H](C)CN1C(=O)OC1(C(F)(F)F)CCC1
Result: 6.30 to 7.00

Ask: Query: pEC50; subject: C[C@@H]1CN(c2ncnc3c2c(C(F)(F)F)cn3-c2cc(C#N)ncn2)[C@@H](C)CN1C(=O)OC(C)(C)C
Result: > 7.00

Ask: Query: pEC50; subject: C[C@@H]1CN(c2ncnc3c2c(C(F)F)cn3C2CCCCC2)[C@@H](C)CN1C(=O)OC(C)(C)C
Result: < 5.70

Ask: Query: pEC50; subject: C[C@@H]1CN(c2nccc3c2c(C(F)F)cn3-c2cc(C#N)ccn2)[C@@H](C)CN1C(=O)OC(C)(C)C
Result: < 5.70

Ask: Query: pEC50; subject: C[C@@H]1CN(c2ncnc3c2c(N2CCC2)cn3-c2cc(F)cc(F)c2)[C@@H](C)CN1C(=O)OC(C)(C)C
Result: > 7.00

Ask: Query: pEC50; subject: C[C@@H]1CN(c2ncnc3c2c(C(C)(C)C)cn3-c2cc(C#N)ncn2)[C@@H](C)CN1C(=O)OC(C)(C)C
Result: > 7.00

Ask: Query: pEC50; subject: C[C@H]1CN(C(=O)OC(C)(C)C)CCN1c1ncnc2c1c(N(C)C1CC1)cn2-c1cccc(Cl)c1
Result: 6.30 to 7.00

Ask: Query: pEC50; subject: [2H]C([2H])([2H])[C@@H]1CN(c2ncnc3c(-c4cc(C#N)ccn4)cn(-c4ccccc4F)c23)[C@@H](C)CN1C(=O)OC(C)(C)C
Result: > 7.00

Ask: Query: pEC50; subject: Cc1cn(-c2cc(C(F)(F)F)ccn2)c2ncnc(N3CCN(C(=O)OC(C)(C)C)[C@H](C)C3)c12
Result: > 7.00

src = patent US20250136606A1
